# targetUnderTest: T1, Full-length human CD96 on CHO-S cells (human, UniProt P40200 22-585)
# T1 construct: also called CD96-CHOs; hCD96-CHOs
# T1 sequence: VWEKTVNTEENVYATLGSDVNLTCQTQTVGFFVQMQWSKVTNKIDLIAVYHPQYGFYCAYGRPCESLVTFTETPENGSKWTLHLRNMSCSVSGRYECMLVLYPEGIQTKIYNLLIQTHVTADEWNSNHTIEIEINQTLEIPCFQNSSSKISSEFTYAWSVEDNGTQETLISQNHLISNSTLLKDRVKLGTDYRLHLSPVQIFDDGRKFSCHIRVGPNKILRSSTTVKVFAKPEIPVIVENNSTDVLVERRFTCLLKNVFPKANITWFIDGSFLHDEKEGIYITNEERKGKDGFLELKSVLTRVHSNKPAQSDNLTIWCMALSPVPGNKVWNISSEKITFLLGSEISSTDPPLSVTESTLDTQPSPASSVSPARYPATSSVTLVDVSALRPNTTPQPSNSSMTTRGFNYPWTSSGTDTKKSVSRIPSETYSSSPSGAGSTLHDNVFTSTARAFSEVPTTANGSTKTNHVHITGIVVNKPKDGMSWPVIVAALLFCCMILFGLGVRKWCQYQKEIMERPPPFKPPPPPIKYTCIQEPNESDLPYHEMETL
# procedureText: cell ELISA, fixed CD96-overexpressing CHO-S cells
assayMetric: EC50 (pM)
// units = pM; emit number, no label

Past entries and their recorded results:
h1719-006 (antibody, V domains shown, also called M719-006) VH: EVTLKESGPVLVKPTETLTLTCTVSGFSLSSYGVSWVRQPPGKGLEWLGVIWGDGNTNYHSVLISRLTISKDTSKSQVVLTLTNMDPVDTATYYCAKNNYYGSRYGYPMDYWGQGTTVTVSS VL: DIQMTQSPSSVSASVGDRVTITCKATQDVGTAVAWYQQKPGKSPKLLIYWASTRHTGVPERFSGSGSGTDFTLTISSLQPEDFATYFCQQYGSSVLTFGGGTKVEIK : 16
h1721-003 (antibody, V domains shown, Only variable regions are tied to this name; also called M721-003) VH: EVTLKESGPVLVKPTETLTLTCTVSGFSLSSYGVNWIRQPPGKALEWLGVIWGDGSTNYHSALISRLTISKDTSKSQVVLTLTNMDPVDTATYYCAKNYFYGSRYGYAMDSWGQGTTVTVSS VL: DIQMTQSPSSLSASVGDRVTITCRASENIYSSLAWYQQKPGKAPKLLIYNAKTLIEGVPSRFSGSGSGTDFTLTISSLQPEDFATYYCQHHYGTPYTFGGGTKVEIK : 74
ch1722 (antibody, human IgG4 S228P, kappa, V domains shown, also called chi722; chimeric antibody corresponding to m1722) VH: QVQLQQPGAELVKPGTSVKLSCKASGNTFIDYWMHWVKQRPGQGLEWIGMLHPNSGTTSFNEKFKIKTTLTIDKSSSTAYMQLSSLTSEDSAIYYCASDYSGPFAYWGQGTLVTVSA VL: QIVLTQSPGIMSAFPGEKVTMTCSASSSVNYIHWYQQKSGTSPKRWIFDTSKLASGVPARFSGSGSGTSYSLTISSMEAEDAATYYCQQWRSNPLTFGAGTKLELKR : 43

Q: Consider the binder ch1718 (antibody, human IgG4 S228P, kappa, V domains shown, also called chimeric antibody corresponding to m1718) VH: EFQLQQSGPELVKPGASVKISCKASAYSITDYNMNWVKQSNGKSLEWIGVINPSYGITDYNQNFKDKATLTVDQSSSTAYMQLNSLTSEDSAVYYCAIQLRLPGYFDVWGTGTTVIVSS VL: DIKMTQSPSSMYASLGERVTITCKASQDINNYLNWFQQKPGKSPKTLIYRANRLVDGVPSRFSGSGSGQDYSLTISSLEYEDMGIYYCLKYDEFPYTFGGGTKVEIKR and give its measured EC50.
Result: 26
